This collection of values is drawn from the supplement of paper PMC12669032.

system: Fusobacterium nucleatum subsp. animalis; experiment: growth AUC relative to DMSO control (median of replicates) (fraction); higher = more growth (less inhibition), active = hit call of the paper; details: 20 µM; 24 h
Quick rule: growth AUC of at least 1 means criterion met, below that means criterion not met.

Molecule	Measured on	Group label
Clc1cc(Cl)c(Cl)c(Cl)c1	Fusobacterium nucleatum subsp. animalis	criterion not met
CCOP(=S)(OCC)SCSC(C)(C)C	Fusobacterium nucleatum subsp. animalis	criterion not met
COc1ccc(/C(=C/C(=O)N2CCOCC2)c2ccc(F)cc2)cc1OC	Fusobacterium nucleatum subsp. animalis	criterion not met
c1ccc2c(c1)cc1ccc3cccc4ccc2c1c34	Fusobacterium nucleatum subsp. animalis	criterion not met
O=S1(=O)OCC2C(CO1)C1(Cl)C(Cl)=C(Cl)C2(Cl)C1(Cl)Cl (stereo not given)	Fusobacterium nucleatum subsp. animalis	criterion not met
Oc1ccc(Cl)cc1Cl	Fusobacterium nucleatum subsp. animalis	criterion not met
CCOC1Oc2ccc(OS(C)(=O)=O)cc2C1(C)C (stereo not given)	Fusobacterium nucleatum subsp. animalis	criterion not met
O=C(O)c1cc(Oc2ccc(C(F)(F)F)cc2Cl)ccc1[N+](=O)[O-]	Fusobacterium nucleatum subsp. animalis	criterion not met
CON(C)C(=O)Nc1ccc(Cl)c(Cl)c1	Fusobacterium nucleatum subsp. animalis	criterion not met
N#Cc1c(Cl)cccc1Cl	Fusobacterium nucleatum subsp. animalis	criterion met
CCOC(=O)c1ccccc1S(=O)(=O)NC(=O)Nc1nc(Cl)cc(OC)n1	Fusobacterium nucleatum subsp. animalis	criterion met
CCS(=O)c1c(C#N)nn(-c2c(Cl)cc(C(F)(F)F)cc2Cl)c1N (stereo not given)	Fusobacterium nucleatum subsp. animalis	criterion met
CCCCCCCCSC(=O)Oc1cc(Cl)nnc1-c1ccccc1	Fusobacterium nucleatum subsp. animalis	criterion not met
CC1(C)[C@H](C(=O)O[C@H](C#N)c2cccc(Oc3ccccc3)c2)[C@@H]1C=C(Br)Br	Fusobacterium nucleatum subsp. animalis	criterion not met
CCOC(=O)CC(SP(=O)(OC)OC)C(=O)OCC (stereo not given)	Fusobacterium nucleatum subsp. animalis	criterion not met
COP(=O)(OC)O/C(=C/Br)c1ccc(Cl)cc1Cl	Fusobacterium nucleatum subsp. animalis	criterion met
O=P(Oc1ccccc1)(Oc1ccccc1)Oc1ccccc1	Fusobacterium nucleatum subsp. animalis	criterion not met
O=C(NC(=O)c1c(F)cccc1F)Nc1cc(Cl)c(OC(F)(F)C(F)F)c(Cl)c1	Fusobacterium nucleatum subsp. animalis	criterion not met
CN1COCN(Cc2cnc(Cl)s2)/C1=N/[N+](=O)[O-]	Fusobacterium nucleatum subsp. animalis	criterion not met
ClCC1C(CCl)C2(Cl)C(Cl)=C(Cl)C1(Cl)C2(Cl)Cl (stereo not given)	Fusobacterium nucleatum subsp. animalis	criterion met
COc1ccc(/C(=C/C(=O)N2CCOCC2)c2ccc(Cl)cc2)cc1OC	Fusobacterium nucleatum subsp. animalis	criterion met
CCCOCCN(C(=O)CCl)c1c(CC)cccc1CC	Fusobacterium nucleatum subsp. animalis	criterion not met
C=C(C)[C@H]1Cc2c(ccc3c2O[C@@H]2COc4cc(OC)c(OC)cc4[C@@H]2C3=O)O1	Fusobacterium nucleatum subsp. animalis	criterion met
COCc1c(F)c(F)c(COC(=O)[C@@H]2[C@@H](C=C(Cl)Cl)C2(C)C)c(F)c1F	Fusobacterium nucleatum subsp. animalis	criterion met
CCC(C)c1cc([N+](=O)[O-])cc([N+](=O)[O-])c1OC(=O)C=C(C)C (stereo not given)	Fusobacterium nucleatum subsp. animalis	criterion not met
CCOC(=O)COc1cc(-c2nn(C)c(OC(F)F)c2Cl)c(F)cc1Cl	Fusobacterium nucleatum subsp. animalis	criterion met
NCCO.O=C(O)c1nc(Cl)ccc1Cl	Fusobacterium nucleatum subsp. animalis	criterion met
CNC(=O)Oc1cccc2c1OC(C)(C)C2O (stereo not given)	Fusobacterium nucleatum subsp. animalis	criterion met
CNC(=O)O/N=C/C(C)(C)S(C)(=O)=O	Fusobacterium nucleatum subsp. animalis	criterion not met
